# subject-of-test: ΔF508-CFTR (Homo sapiens, UniProt P13569, DEL508-508)
# Construct: host or cells: CFBE41o-, doxycycline-inducible
# Sequence (P13569 with tags, fused parts or gaps DEL508-508): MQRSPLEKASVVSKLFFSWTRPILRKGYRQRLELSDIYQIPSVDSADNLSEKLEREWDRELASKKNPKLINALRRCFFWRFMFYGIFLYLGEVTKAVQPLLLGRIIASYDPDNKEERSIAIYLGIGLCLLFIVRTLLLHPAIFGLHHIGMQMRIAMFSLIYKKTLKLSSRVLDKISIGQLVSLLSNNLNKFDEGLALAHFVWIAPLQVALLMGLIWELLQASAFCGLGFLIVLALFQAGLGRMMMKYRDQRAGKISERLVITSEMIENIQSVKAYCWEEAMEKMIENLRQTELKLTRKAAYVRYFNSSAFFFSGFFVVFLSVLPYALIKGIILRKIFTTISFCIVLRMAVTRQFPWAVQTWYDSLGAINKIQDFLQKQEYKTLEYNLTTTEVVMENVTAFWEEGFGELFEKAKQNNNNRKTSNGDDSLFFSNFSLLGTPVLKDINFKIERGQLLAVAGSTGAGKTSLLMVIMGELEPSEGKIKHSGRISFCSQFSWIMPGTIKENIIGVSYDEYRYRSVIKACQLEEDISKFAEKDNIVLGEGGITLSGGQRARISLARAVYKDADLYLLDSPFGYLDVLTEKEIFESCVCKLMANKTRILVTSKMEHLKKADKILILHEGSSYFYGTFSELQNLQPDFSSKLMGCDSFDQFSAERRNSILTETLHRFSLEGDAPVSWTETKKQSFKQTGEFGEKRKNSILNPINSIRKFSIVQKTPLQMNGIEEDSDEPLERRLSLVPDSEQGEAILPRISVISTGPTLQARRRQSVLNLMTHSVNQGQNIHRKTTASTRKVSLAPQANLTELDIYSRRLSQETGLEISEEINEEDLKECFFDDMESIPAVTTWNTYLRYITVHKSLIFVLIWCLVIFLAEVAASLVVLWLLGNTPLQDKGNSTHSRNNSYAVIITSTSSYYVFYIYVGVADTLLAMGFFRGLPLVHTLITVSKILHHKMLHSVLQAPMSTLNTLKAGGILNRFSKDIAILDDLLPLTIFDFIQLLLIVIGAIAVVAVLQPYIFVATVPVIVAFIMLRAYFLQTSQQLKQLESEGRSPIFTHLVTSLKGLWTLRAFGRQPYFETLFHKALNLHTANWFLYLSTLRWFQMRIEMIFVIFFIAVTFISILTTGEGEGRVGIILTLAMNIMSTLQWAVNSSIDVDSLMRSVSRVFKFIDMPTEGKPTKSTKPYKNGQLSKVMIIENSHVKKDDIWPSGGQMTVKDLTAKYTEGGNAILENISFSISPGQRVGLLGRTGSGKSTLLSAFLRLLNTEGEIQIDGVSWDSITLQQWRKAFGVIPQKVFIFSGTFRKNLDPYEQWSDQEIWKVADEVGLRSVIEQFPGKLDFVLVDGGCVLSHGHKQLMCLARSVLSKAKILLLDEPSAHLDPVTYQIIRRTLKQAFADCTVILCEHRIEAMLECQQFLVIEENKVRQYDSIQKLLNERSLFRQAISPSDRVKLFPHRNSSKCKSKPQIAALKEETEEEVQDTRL
# assay-details: CFTR cell surface levels using HRP-tagged ΔF508-CFTR expressing CFBE cells, in the presence of a co-corrector
# Type: cell-based
# condition-parameters: HRP-tagged ΔF508-CFTR expressing CFBE cells, in the presence of 3 μM co-corrector
Measured % Activation, listed per entry for reference.
Your answer should be a plain number; it is taken to be in %.

These recorded examples may help you get a feel for the data.
Incoming: Provide % Activation value for the following molecule: `O=C(O)c1cc(N2CCC(N3CCCC3)CC2)c2c(C3CCC3)nn(-c3ccccc3)c2n1`
Outgoing: 317.25

Incoming: Provide % Activation value for the following molecule: `CC(C)c1nn(-c2cccc(N(C)C)c2)c2nc(C(=O)O)cc(-c3ccc(N(C)C4CCOCC4)nc3)c12`
Outgoing: 590.78

Incoming: Provide % Activation value for the following molecule: `CN(C[C@H]1CCN(c2cc(C(=O)O)nc3c2c(C2CCC2)nn3-c2ccccc2)C1)C(=O)OC(C)(C)C`
Outgoing: 303.65

# context switch: different molecule, same % Activation
Incoming: Provide % Activation value for the following molecule: `CC(C)c1nn(-c2cccc(N(C)C)c2)c2nc(C(=O)O)cc(-c3ccc(N4CCOCC4)nc3)c12`
Outgoing: 504.7

###

Measured % Activation, listed per entry for reference.
# subject-of-test: ΔF508-CFTR (Homo sapiens, UniProt P13569, DEL508-508)
# Construct: host or cells: CFBE41o-, doxycycline-inducible
# assay-details: CFTR cell surface levels using HRP-tagged ΔF508-CFTR expressing CFBE cells, in the presence of a co-corrector
# Assay type: cell-based
# condition-parameters: HRP-tagged ΔF508-CFTR expressing CFBE cells, in the presence of 3 μM co-corrector
Your answer should be a plain number; it is taken to be in %.

These recorded examples may help you get a feel for the data.
Incoming: Provide % Activation value for the following compound: COC1CCN(c2cc(C(=O)O)nc3c2c(C(C)C)nn3-c2cccc(C)c2)CC1 [compound 192]
Outgoing: 439.45

Incoming: Provide % Activation value for the following compound: O=C(O)c1cc(OC[C@@H]2CCCO2)c2c(C3CCC3)nn(-c3ccccc3)c2n1 [compound 480]
Outgoing: 270.4

Incoming: Provide % Activation value for the following compound: O=C(O)c1cc(N2CCN(CC3CCCO3)CC2)c2c(C3CCC3)nn(-c3ccccc3)c2n1 (centres unmarked) [compound 681]
Outgoing: 373.05

Continuing:
Incoming: Provide % Activation value for the following compound: CS(=O)(=O)NC1CCN(c2cc(C(=O)O)nc3c2c(C2CCC2)nn3-c2ccccc2)CC1 [compound 519]
Outgoing: 340.6

Incoming: Provide % Activation value for the following compound: Cc1nn(-c2ccccc2)c2nc(C(=O)O)cc(OCC3(F)CCN(C)C3)c12 (centres unmarked) [compound 378]
Outgoing: 140.5

Incoming: Provide % Activation value for the following compound: CC(C)c1nn(-c2cccc(N(C)C)c2)c2nc(C(=O)O)cc(-c3cnc(N(C)C4CCOCC4)nc3)c12 [compound 200]
Outgoing: 594.2

Incoming: Provide % Activation value for the following compound: O=C(O)c1cc(N2CCC(C3CCN(C4COC4)CC3)CC2)c2c(C3CCC3)nn(-c3ccccc3)c2n1 [compound 736]
Outgoing: 511.6

Incoming: Provide % Activation value for the following compound: CC(C)c1nn(C2CCCC2)c2nc(C(=O)O)cc(-c3cnc(N(C)C)nc3)c12 [compound 67]
Outgoing: 280.35
